Tested on: NCI-H2347
test.method.notes: relative viability (nuclei count vs DMSO), 5 days (fraction); higher = more cells survive
experimental.parameters: first compound 0.01581 µM
Flag rule - relative viability less than 0.6 flags Fulfilled; the remaining entries get Not fulfilled.

Qu. Does CC1(C)CCC(c2ccc(Cl)cc2)=C(CN2CCN(c3ccc(C(=O)NS(=O)(=O)c4ccc(N[C@H](CCN5CCOCC5)CSc5ccccc5)c(S(=O)(=O)C(F)(F)F)c4)cc3)CC2)C1 [Navitoclax] + O=C(CCCCCCC(=O)Nc1ccccc1)NO [Vorinostat] (partner 1 µM) have relative viability strictly under 0.6?
Ans. Not fulfilled

Qu. Same again, this time with CC1(C)CCC(c2ccc(Cl)cc2)=C(CN2CCN(c3ccc(C(=O)NS(=O)(=O)c4ccc(N[C@H](CCN5CCOCC5)CSc5ccccc5)c(S(=O)(=O)C(F)(F)F)c4)cc3)CC2)C1 [Navitoclax] + CC(=O)c1c(C)c2cnc(Nc3ccc(N4CCNCC4)cn3)nc2n(C2CCCC2)c1=O [Palbociclib] (partner 0.5 µM)
Ans. Fulfilled

Qu. Also check CC1(C)CCC(c2ccc(Cl)cc2)=C(CN2CCN(c3ccc(C(=O)NS(=O)(=O)c4ccc(N[C@H](CCN5CCOCC5)CSc5ccccc5)c(S(=O)(=O)C(F)(F)F)c4)cc3)CC2)C1 [Navitoclax] + CC(=O)Nc1cccc(-n2c(=O)n(C3CC3)c(=O)c3c(Nc4ccc(I)cc4F)n(C)c(=O)c(C)c32)c1 [Trametinib] (partner 0.02 µM)
Ans. Fulfilled

Qu. Please answer likewise for CC1(C)CCC(c2ccc(Cl)cc2)=C(CN2CCN(c3ccc(C(=O)NS(=O)(=O)c4ccc(N[C@H](CCN5CCOCC5)CSc5ccccc5)c(S(=O)(=O)C(F)(F)F)c4)cc3)CC2)C1 [Navitoclax] + Nc1ncn([C@H]2C[C@H](O)[C@@H](CO)O2)c(=O)n1 [Decitabine] (partner 2 µM)
Ans. Fulfilled

Qu. # repeat for CC1(C)CCC(c2ccc(Cl)cc2)=C(CN2CCN(c3ccc(C(=O)NS(=O)(=O)c4ccc(N[C@H](CCN5CCOCC5)CSc5ccccc5)c(S(=O)(=O)C(F)(F)F)c4)cc3)CC2)C1 [Navitoclax] + CS(=O)(=O)N1CCN(Cc2cc3nc(-c4cccc5[nH]ncc45)nc(N4CCOCC4)c3s2)CC1 [Pictilisib] (partner 1 µM)
Ans. Not fulfilled

More entries:
Qu. Hello, I'm reviewing records and need to know if relative viability of CC1(C)CCC(c2ccc(Cl)cc2)=C(CN2CCN(c3ccc(C(=O)NS(=O)(=O)c4ccc(N[C@H](CCN5CCOCC5)CSc5ccccc5)c(S(=O)(=O)C(F)(F)F)c4)cc3)CC2)C1 [Navitoclax] + C[C@]1(O)C[C@@H](c2nc(-c3ccc4ccc(-c5ccccc5)nc4c3)c3c(N)nccn32)C1 [Linsitinib] (partner 1 µM) is below 0.6. Could you check?
Ans. Not fulfilled

Qu. And CC1(C)CCC(c2ccc(Cl)cc2)=C(CN2CCN(c3ccc(C(=O)NS(=O)(=O)c4ccc(N[C@H](CCN5CCOCC5)CSc5ccccc5)c(S(=O)(=O)C(F)(F)F)c4)cc3)CC2)C1 [Navitoclax] + CS(=O)(=O)CCNCc1ccc(-c2ccc3ncnc(Nc4ccc(OCc5cccc(F)c5)c(Cl)c4)c3c2)o1 [Lapatinib] (partner 2 µM) ?
Ans. Not fulfilled

---

relative viability by entry:
System: NCI-H727
test.method.notes: relative viability (nuclei count vs DMSO), 5 days (fraction); higher = more cells survive
experimental.parameters: first compound 0.1265 µM
Write no unit; give the number alone.

Qu. Need relative viability, item O=C(O)c1ccc(-c2c[nH]c3ncc(-c4ccccc4)cc23)cc1C1CCCC1 + CC(=O)c1c(C)c2cnc(Nc3ccc(N4CCNCC4)cn3)nc2n(C2CCCC2)c1=O [Palbociclib] (partner 0.5 µM)
Ans. 0.662

Qu. Same for O=C(O)c1ccc(-c2c[nH]c3ncc(-c4ccccc4)cc23)cc1C1CCCC1 + N=C(N)NC(=N)NCCc1ccccc1 [Phenformin] (partner 250 µM)
Ans. 0.684

Qu. Okay, and O=C(O)c1ccc(-c2c[nH]c3ncc(-c4ccccc4)cc23)cc1C1CCCC1 + COc1cccc2cc(-c3nc([C@H]4CC[C@H](C(=O)O)CC4)n4ncnc(N)c34)[nH]c12 [OSI-027] (partner 0.5 µM) ?
Ans. 0.672

Qu. And the next one, O=C(O)c1ccc(-c2c[nH]c3ncc(-c4ccccc4)cc23)cc1C1CCCC1 + COc1cc2c(Oc3ccc(NC(=O)C4(C(=O)Nc5ccc(F)cc5)CC4)cc3F)ccnc2cc1OCCCN1CCOCC1 [Foretinib] (partner 0.25 µM) ?
Ans. 0.823
